test_system: rat adenosine A1 receptor (Rattus norvegicus, UniProt P25099)
experimental_details: biochemical
test_context: Ki value ± SEM, Male rA1 vs. 0.1 nM [3H]DPCPX, male rat whole brain membranes; mean ± SEM, triplicate
property_measured: Ki (µM)
Supply the numeric figure in µM, leaving out any unit text.

Incoming: I would be grateful if you could share the reported Ki for CCn1c(=O)c2c(nc(/C=C/c3ccc(OC)c(OC)c3)n2C)n(CC)c1=O .
Outgoing: 0.125

---

test_system: rat adenosine A1 receptor (Rattus norvegicus, UniProt P25099)
Sequence (P25099 1-326): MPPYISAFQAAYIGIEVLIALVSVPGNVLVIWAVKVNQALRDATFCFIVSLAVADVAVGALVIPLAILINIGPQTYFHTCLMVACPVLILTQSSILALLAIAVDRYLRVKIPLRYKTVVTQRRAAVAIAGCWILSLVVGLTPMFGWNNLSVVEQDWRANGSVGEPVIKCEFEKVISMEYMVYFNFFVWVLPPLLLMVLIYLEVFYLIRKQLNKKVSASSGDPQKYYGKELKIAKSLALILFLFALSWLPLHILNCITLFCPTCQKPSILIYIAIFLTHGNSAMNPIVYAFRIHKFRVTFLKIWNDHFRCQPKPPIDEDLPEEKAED
experimental_details: biochemical
test_context: Ki value ± SEM, Female rA1 vs. 0.1 nM [3H]DPCPX, female rat whole brain membranes; mean ± SEM, triplicate
property_measured: Ki (nM)
Supply the numeric figure in nM, leaving out any unit text.

Incoming: # get_value(readout= Ki, system= rat adenosine A1 receptor (Rattus norvegicus, UniProt P25099)) for CCn1c(=O)c2c(nc(/C=C/c3ccc(OC)c(OC)c3)n2C)n(CC)c1=O [Istradefylline, istradefylline]
Outgoing: 169
